SPOT intensity by entry:
Target: Rvs167, P39743
Sequence (P39743 419-482): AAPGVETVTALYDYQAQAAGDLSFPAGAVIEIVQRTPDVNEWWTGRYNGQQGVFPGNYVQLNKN
Assay: SPOT array
Conditions: median of control spots 2707
property.label: SPOT intensity

1) VNFRRIPTGPDSPPT : 2
2) VFQFQMPTTPISTKM : 0
3) GKLKHIPRRPYEIER : 1
4) TSIEIPKRSPLRFTS : 0
5) RKRRTHLRLPLIRSN : 0
6) SSTPTTPERPKRKSG : 0
7) HAPPLPPTAPPPPSL : 0
8) GTIARPLFLVVLFFI : 0

Where these numbers come from: paper PMC2756588
